Molecular target: T1, full length recombinant human 2N4R tau (human, UniProt P10636 1-758)
T1 construct: bought from rPeptide; pHrodo Red maleimide-labelled where it stands in uptake assays; also called tau1-441; full length tau
T1 sequence (P10636 other isoform, or with tags, fused parts or gaps limits assumed): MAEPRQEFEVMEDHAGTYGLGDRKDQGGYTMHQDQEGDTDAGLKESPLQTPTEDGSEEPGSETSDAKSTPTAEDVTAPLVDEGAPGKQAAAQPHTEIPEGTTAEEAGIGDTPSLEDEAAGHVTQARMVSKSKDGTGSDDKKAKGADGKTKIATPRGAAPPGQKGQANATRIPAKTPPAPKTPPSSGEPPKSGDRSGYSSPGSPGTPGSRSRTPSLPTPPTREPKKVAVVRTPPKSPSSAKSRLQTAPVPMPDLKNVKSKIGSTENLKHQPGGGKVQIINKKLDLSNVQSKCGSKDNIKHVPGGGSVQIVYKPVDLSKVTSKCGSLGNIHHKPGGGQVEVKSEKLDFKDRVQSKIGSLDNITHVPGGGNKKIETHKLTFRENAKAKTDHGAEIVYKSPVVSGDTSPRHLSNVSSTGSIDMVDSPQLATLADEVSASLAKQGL
Assay: SPR SCK, IgG on Protein A, tau in flow
quantity-measured: Fold change (KD, to pVH/pVL)
No unit in the answer, please; the number alone is enough.

input: Tell me measured Fold change (KD, to pVH/pVL) for #44_VH4VK4_H12/pVL (antibody, V domains shown, also called Clone VH4_H12; #44_VH4_H12) VH: QVQLQESGPGLVKPSETLSLTCTVSGIDLSSYAMAWVRQAPGKGLEWIGAIDARGSTFYASWVKGRFTISKDTSKTTVDLQMTSLTAEDTATYFCARDSGAFDPWGQGTLVTVSS VL: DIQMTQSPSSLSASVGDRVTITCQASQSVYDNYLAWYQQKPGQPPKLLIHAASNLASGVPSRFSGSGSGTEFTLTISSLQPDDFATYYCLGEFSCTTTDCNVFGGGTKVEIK please.
output: 1.09

input: Tell me measured Fold change (KD, to pVH/pVL) for #44_VH4VK4_H06-H02/pVL (antibody, V domains shown, also called H06-02/pVL; Clone VH4_H06_H02) VH: QVQLQESGPGLVKPSETLSLTCTVSGIDLSSYAMAWVRQAPGKGLEWIGVIDAAGHTFYASWVKGRFTISKDTSKTTVDLQMTSLTAEDTATYFCARDRGDFDVWGQGTLVTVSS VL: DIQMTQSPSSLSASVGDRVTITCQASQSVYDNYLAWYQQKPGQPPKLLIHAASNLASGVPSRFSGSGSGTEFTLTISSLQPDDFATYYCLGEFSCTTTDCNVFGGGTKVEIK please.
output: 7.73
